Test system: Escherichia coli
Assay: minimum inhibitory concentration (MIC)
Conditions: isolate (source animal id): 157
recorded-endpoint: minimum inhibitory concentration

molecule	recorded-endpoint	result
CNC(C)C1CCC(N)C(OC2C(N)CC(N)C(OC3OCC(C)(O)C(NC)C3O)C2O)O1 (stereo not drawn)	minimum inhibitory concentration	≤ 1 µg/mL
NC[C@@H]1O[C@H](O[C@H]2[C@@H](O)[C@H](O[C@@H]3[C@@H](O)[C@H](N)C[C@H](N)[C@H]3O[C@H]3O[C@H](CN)[C@@H](O)[C@H](O)[C@H]3N)O[C@@H]2CO)[C@H](N)[C@@H](O)[C@@H]1O	minimum inhibitory concentration	≤ 4 µg/mL
C=C[C@]1(C)C[C@@H](OC(=O)CSCCN(CC)CC)[C@]2(C)[C@H](C)CC[C@]3(CCC(=O)[C@H]32)[C@@H](C)[C@@H]1O	minimum inhibitory concentration	> 32 µg/mL

Every entry's value here was drawn from the supplement of paper PMC8612539.
